Reported log10(IC50) on Xanthine dehydrogenase/oxidase (Bos taurus, UniProt P80457) for assorted compounds, compiled from publications.
Sequence (P80457 whole entry): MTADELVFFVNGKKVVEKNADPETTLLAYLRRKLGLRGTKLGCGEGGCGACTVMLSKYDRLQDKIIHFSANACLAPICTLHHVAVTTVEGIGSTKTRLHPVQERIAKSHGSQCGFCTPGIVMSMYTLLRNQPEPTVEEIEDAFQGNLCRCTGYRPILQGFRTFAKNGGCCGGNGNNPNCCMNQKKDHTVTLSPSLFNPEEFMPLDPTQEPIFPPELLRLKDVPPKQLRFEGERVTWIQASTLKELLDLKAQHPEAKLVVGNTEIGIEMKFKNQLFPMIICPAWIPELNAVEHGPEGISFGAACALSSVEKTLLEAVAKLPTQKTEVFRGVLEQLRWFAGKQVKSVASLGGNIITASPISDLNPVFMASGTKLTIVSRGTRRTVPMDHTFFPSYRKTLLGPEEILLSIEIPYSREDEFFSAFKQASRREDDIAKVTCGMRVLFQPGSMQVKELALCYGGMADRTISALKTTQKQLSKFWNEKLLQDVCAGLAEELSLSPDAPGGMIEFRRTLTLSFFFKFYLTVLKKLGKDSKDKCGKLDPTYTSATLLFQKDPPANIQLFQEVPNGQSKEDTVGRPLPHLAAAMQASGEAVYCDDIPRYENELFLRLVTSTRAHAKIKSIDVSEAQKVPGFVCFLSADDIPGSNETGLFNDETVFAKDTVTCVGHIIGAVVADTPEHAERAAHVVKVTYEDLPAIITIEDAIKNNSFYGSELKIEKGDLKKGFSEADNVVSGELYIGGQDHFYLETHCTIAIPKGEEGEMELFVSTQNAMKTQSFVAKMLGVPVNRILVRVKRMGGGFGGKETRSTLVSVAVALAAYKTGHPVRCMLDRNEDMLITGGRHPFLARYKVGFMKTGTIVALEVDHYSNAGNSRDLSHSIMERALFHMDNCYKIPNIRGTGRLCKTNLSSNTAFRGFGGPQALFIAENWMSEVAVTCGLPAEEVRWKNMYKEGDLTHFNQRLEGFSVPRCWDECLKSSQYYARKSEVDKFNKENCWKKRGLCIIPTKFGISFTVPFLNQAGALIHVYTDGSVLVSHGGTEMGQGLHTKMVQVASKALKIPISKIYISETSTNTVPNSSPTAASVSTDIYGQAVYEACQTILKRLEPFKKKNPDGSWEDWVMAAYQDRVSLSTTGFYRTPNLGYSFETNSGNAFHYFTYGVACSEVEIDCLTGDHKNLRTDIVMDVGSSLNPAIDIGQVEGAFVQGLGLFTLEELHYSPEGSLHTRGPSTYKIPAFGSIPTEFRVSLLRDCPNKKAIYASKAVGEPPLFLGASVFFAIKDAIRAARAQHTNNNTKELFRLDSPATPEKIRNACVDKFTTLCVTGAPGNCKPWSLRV
endpoint: log10(IC50) (log10 of the value in µM)

compound	measuredTarget	log10(IC50)
Oc1cc(O)n2ncc(-c3ccccc3)c2n1	Xanthine dehydrogenase/oxidase (Bos taurus, UniProt P80457)	-1.42
COCCOc1ccc(-c2nc(-c3ccnc(C)c3)n[nH]2)cc1C#N	Xanthine dehydrogenase/oxidase (Bos taurus, UniProt P80457)	-1.19
Cc1cccc(C(=O)Nc2cccc(C(=O)/C=C/c3ccc4c(c3)c3ccccc3n4C)c2)c1	Xanthine dehydrogenase/oxidase (Bos taurus, UniProt P80457)	1.32
CC(=O)OCC1=CC[C@@H]2C(C(=O)SC3=NCCS3)=CO[C@@H](O[C@@H]3O[C@H](COC(C)=O)[C@@H](OC(C)=O)[C@H](OC(C)=O)[C@H]3OC(C)=O)[C@H]12	Xanthine dehydrogenase/oxidase (Bos taurus, UniProt P80457)	1.10
COc1ccc(COc2ccc(NC(=O)c3ccncc3)cc2C#N)cc1	Xanthine dehydrogenase/oxidase (Bos taurus, UniProt P80457)	-0.22
N#Cc1ccc(-c2n[nH]c(-c3ccncc3)n2)cn1	Xanthine dehydrogenase/oxidase (Bos taurus, UniProt P80457)	-1.42
CC(=O)NC(/C=C/c1ccccc1)CC(=O)c1ccccc1 (stereo unspecified)	Xanthine dehydrogenase/oxidase (Bos taurus, UniProt P80457)	1.89
C=C1CC[C@]2(C(=O)O[C@@H]3O[C@H](CO[C@@H]4O[C@H](CO)[C@@H](O[C@@H]5O[C@@H](C)[C@H](O)[C@@H](O)[C@H]5O)[C@H](O)[C@H]4O)[C@@H](O)[C@H](O)[C@H]3O)CC[C@]3(C)C(=CC[C@@H]4[C@@]5(C)CC[C@H](O[C@@H]6OC[C@H](O)[C@H](O[C@@H]7O[C@H](C(=O)O)[C@@H](O)[C@H](O)[C@H]7O)[C@H]6O)[C@@](C)(CO)[C@@H]5CC[C@]43C)[C@@H]2C1	Xanthine dehydrogenase/oxidase (Bos taurus, UniProt P80457)	1.96
Cc1nn(-c2ccc(OCC(C)(C)C)c(C#N)c2)cc1C(=O)O	Xanthine dehydrogenase/oxidase (Bos taurus, UniProt P80457)	-1.64
Cc1cc(=O)n2nc(COc3ccc(Cl)c(C)c3)sc2n1	Xanthine dehydrogenase/oxidase (Bos taurus, UniProt P80457)	-0.20
COc1cccc(Cn2cc(C#N)c3cc(-c4noc(=O)[nH]4)ccc32)c1	Xanthine dehydrogenase/oxidase (Bos taurus, UniProt P80457)	0.23
COc1ccc(OCc2nn3c(=O)cc(C)nc3s2)cc1	Xanthine dehydrogenase/oxidase (Bos taurus, UniProt P80457)	-0.57
CC(C)(C)c1ccc(-c2ccc(-n3cnc(C(=O)O)c3)cc2C#N)cc1	Xanthine dehydrogenase/oxidase (Bos taurus, UniProt P80457)	-2.14
C=C(C)COc1ccc2c(c1)O/C(=C\c1ccc(C(=O)O)cc1)C2=O	Xanthine dehydrogenase/oxidase (Bos taurus, UniProt P80457)	-1.34
CC(=O)OCC1=CC[C@@H]2C(C(=O)Oc3ccncc3)=CO[C@@H](O[C@@H]3O[C@H](COC(C)=O)[C@@H](OC(C)=O)[C@H](OC(C)=O)[C@H]3OC(C)=O)[C@H]12	Xanthine dehydrogenase/oxidase (Bos taurus, UniProt P80457)	0.96
